- target-under-test: T1, RSM, RECQ4(348-388) (Homo sapiens, UniProt O94761)
- T1 chain: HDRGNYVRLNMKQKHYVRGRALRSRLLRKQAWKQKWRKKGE
- test-description: fluorescence anisotropy; low ionic strength (70 mM KCl); submicromolar; FA: 25 mM KPO4 pH 6.5, 70 mM KCl (or 500 mM NaCl), 25 C; ITC: same low-salt buffer, 30 C; NMR dsDNA: 50 mM NaPO4 pH 6.0, 150 mM NaCl, 298 K; NMR G4: 25 mM KPO4
- measurement-setup: protein: recombinant; tags: N-terminal His6-TEV construct (pET-M11); label: 5' FITC (FA); intramolecular hybrid G4
pKd: −log10 of the molar value.
quantity-kind: pKd

Measured pKd, TTGGGTTAGGGTTAGGGTTAGGGA (structured_DNA) [HT hybrid G4] : > 6.00
